Please provide measured GI50 for the entries that follow.
Test system: SN12C
testMethodNotes: NCI tumour cell line growth inhibition, 48 h
The source made the active and inactive calls. Rule as the data show it: active = GI50 up to about 1.1 µM and inactive = higher.

Recorded GI50, per entry:
{"compound": "CCOC(=O)c1cnc2[nH]c(=O)c3ccccc3n2c1=O", "GI50": "> 100 µM (inactive)"}
{"compound": "NCCc1ccc2c(c1)C(=O)c1c(O)ccc(O)c1C2=O", "GI50": "2.51 µM (inactive)"}

I need GI50 for every entry listed below, if you could help.
1. CCCCC/C=C\C=C1\C(=O)C=C[C@@H]1C/C=C\CCCC(=O)O
2. CC(=O)OCC1OC(n2c3c(cc(C#N)c2=S)CCCCCC3)C(OC(C)=O)C(OC(C)=O)C1OC(C)=O (stereo unspecified)
3. CCC/C(Cl)=N/OC(=O)Nc1cccc(F)c1
4. CC(=O)Nc1ccc(S(=O)(=O)NN(C)S(=O)(=O)c2ccc(C)cc2)cc1
5. Cc1c(CNc2ccc(C(=O)NC(CCCNC(=O)c3ccccc3C(=O)O)C(=O)O)cc2)cnc2nc(N)nc(N)c12 (stereo unspecified)

2 µM (inactive)
> 100 µM (inactive)
6.75 µM (inactive)
> 100 µM (inactive)
0.00466 µM (active)

I need GI50 for every entry listed below, if you could help.
1. C=C/C=C/NC(=O)OCc1ccccc1
2. COc1cc(/C=C2\CCC(C)C3=C2N=c2s/c(=C/c4ccc(Cl)cc4)c(=O)n2C3c2cc(OC)c(OC)c(OC)c2)cc(OC)c1OC (stereo unspecified)
3. COC(=O)C12CCC(C(F)(F)C1=O)C2(C)C (stereo unspecified)
4. C=CCC1(C)CCCN(Cc2ccccc2)C1=O (stereo unspecified)
5. CN(C)NC1=NS(=O)(=O)c2cc3c(cc2S1)N(N(C)C)C(=O)c1cc2c(cc1N(N(C)C)C3=O)SC(NN(C)C)=NS2(=O)=O

> 100 µM (inactive)
> 100 µM (inactive)
> 100 µM (inactive)
> 10 µM (inactive)
> 10 µM (inactive)

I need GI50 for every entry listed below, if you could help.
1. O=C1N=C(Nc2ccccc2Cl)N/C1=C\c1ccc(Cl)cc1Cl
2. CCC(=O)ONC(=O)Cn1ccc([N+](=O)[O-])n1
3. C/C=C1\CN(C(=O)OC(C)(C)C)C1C(=O)OC(C)(C)C (stereo unspecified)
4. O=C(Cn1cc(Br)c(=O)[nH]c1=O)c1ccc(-c2ccccc2)cc1
5. COC(=O)/C1=C/c2c([nH]c3ccccc23)/C(C(=O)OC)=C\c2c1[nH]c1ccccc21
6. CC(=O)NC1=C(NCC(C)(C)C)C(=O)c2ccccc2C1=O

["25 µM (inactive)", "> 100 µM (inactive)", "> 100 µM (inactive)", "16.1 µM (inactive)", "34.4 µM (inactive)", "> 100 µM (inactive)"]

* * *

System: MDA-MB-231
testMethodNotes: NCI tumour cell line growth inhibition, 48 h
Activity calls are given as the source filed them. Rule as the data show it: active = GI50 up to about 1.1 µM and inactive = higher.
observationType: GI50

Recorded GI50, per entry:
{"compound": "COc1ccc2c(c1)CCCc1c-2nc2ccccc2c1N", "GI50": "5.7 µM (inactive)"}
{"compound": "O=C1c2cc([N+](=O)[O-])sc2C(=O)c2cc([N+](=O)[O-])sc21", "GI50": "2.07 µM (inactive)"}
{"compound": "Cc1c(CNc2ccc(C(=O)NC(CCCNC(=O)c3ccccc3C(=O)O)C(=O)O)cc2)cnc2nc(N)nc(N)c12 (stereo not given)", "GI50": "3.23 µM (inactive)"}
{"compound": "C=C(C)C1Cc2c(cc3c(c2O)c(=O)c2ccccc2n3C)O1 (stereo not given)", "GI50": "2.2 µM (inactive)"}
{"compound": "COc1ccc(NC2Oc3cc4c(cc3C(c3cccc(OC)c3OC)C2C)OCO4)cc1 (stereo not given)", "GI50": "16.7 µM (inactive)"}

I need GI50 for every entry listed below, if you could help.
1. CSc1c(C#N)c(N)nc2c(/N=N\c3ccc(Cl)cc3)c(N)nn12
2. C(=N\c1ccc2c(c1)Cc1ccccc1-2)/c1ccccn1
3. CCNC(=O)Cc1nc2c(O)ncnc2n1C1OC(CO)C(O)C1O (stereo not given)
4. CC(=O)OCC1OC(n2c3c(cc(C#N)c2=S)CCCCCC3)C(OC(C)=O)C(OC(C)=O)C1OC(C)=O (stereo not given)
5. COc1ccc2c(c1)CCC(CN1CCN(CCOC(c3ccc(F)cc3)c3ccc(F)cc3)CC1)=C2

["2.04 µM (inactive)", "68.2 µM (inactive)", "> 100 µM (inactive)", "> 100 µM (inactive)", "14.1 µM (inactive)"]

Hello, the source for this data is ChEMBL document CHEMBL1201862, in case you need it.
